Conditions: buffer; pH 7.4; 200.0 µM
property-measured: log10 solubility kinetic (log10 of the value in mg/mL)

compound: Cc1ccc2nc(-c3ccc(-c4ccccn4)s3)cn2c1
measured-number: -2.49

compound: Cn1cccc1-c1nc2ccc([N+](=O)[O-])cc2[nH]1
measured-number: -1.82

compound: O=C(O)CN1C(=O)/C(=C/c2ccc(SCc3ccccc3)o2)SC1=S
measured-number: -1.67

compound: COc1ccc(/C=C/C(=O)NC2CCCCC2C)cc1 (stereo not given)
measured-number: -2.40

compound: c1ccc2sc(NC3=NCN(CC4CCCO4)CN3)nc2c1 (stereo not given)
measured-number: -1.38

compound: Cc1ccccc1NC(=O)C1C2CCCCC21 (stereo not given)
measured-number: -2.47

compound: C=CCN(Cc1cccc(OC)c1OC)C(=O)Oc1ccccc1
measured-number: -2.02

compound: COC(=O)CN(c1nc(C)c(Br)c(OC)n1)S(=O)(=O)c1ccccc1
measured-number: -1.84

compound: Cc1ccc(C(=O)O)cc1NS(=O)(=O)c1ccc2c(c1)oc(=O)n2C
measured-number: -1.35

compound: Cn1c(=S)oc2ccccc21
measured-number: -1.83

compound: COc1cccc(C(=O)Nc2cccc3ccccc23)c1
measured-number: -2.82

compound: COc1ccc(Cl)cc1NC(=O)CN(C)CC(=O)N(CC(C)C)c1c(N)n(CC(C)C)c(=O)[nH]c1=O
measured-number: -1.11

###

Conditions: buffer; pH 7.4; 200.0 µM

molecule: COc1ccc(CN2C(=O)COc3ccccc32)cc1
comparison-sign: =
solubility kinetic / µg/mL: 34.1

molecule: O=C(NC(N1CCOCC1)C(Cl)(Cl)Cl)c1ccc(F)cc1 (stereo unspecified)
comparison-sign: =
solubility kinetic / µg/mL: 41.1

molecule: COc1ccc(CNC(=O)CN(c2ccc(C(C)=O)cc2)S(=O)(=O)c2ccc(C)cc2)cc1OC
comparison-sign: =
solubility kinetic / µg/mL: 4.1

molecule: COC(=O)c1cc(CSc2ncnc3sccc23)oc1C
comparison-sign: =
solubility kinetic / µg/mL: 4.3

molecule: Cc1ccc(NC(=O)Nc2ccccc2)nc1
comparison-sign: =
solubility kinetic / µg/mL: 2.6

molecule: O=C(COC(=O)c1cccs1)Nc1ccc(Cl)cn1
comparison-sign: =
solubility kinetic / µg/mL: 3.1

molecule: CCOC(=O)C1=C(N)Oc2cc(O)ccc2C1c1ccccc1 (stereo unspecified)
comparison-sign: <
solubility kinetic / µg/mL: 0.7

molecule: Cc1ccc2[nH]c(C)c(CC(=O)NCc3ccccc3)c2c1
comparison-sign: >
solubility kinetic / µg/mL: 43.9

molecule: COc1ccc(CCNC(=S)NCCc2ccc(OC)c(OC)c2)cc1OC
comparison-sign: >
solubility kinetic / µg/mL: 60.7

molecule: OC(CN1CCC(c2c[nH]c3ccccc23)CC1)C(F)(F)F (stereo unspecified)
comparison-sign: >
solubility kinetic / µg/mL: 46.9

molecule: O=C(Nc1ccc(-c2ccccc2)cc1)c1ccccc1
comparison-sign: =
solubility kinetic / µg/mL: 1

molecule: O=C(CC1CCCCC1)NCc1ccccc1Cl
comparison-sign: =
solubility kinetic / µg/mL: 2.9

molecule: C[C@@H](C(=O)Nc1nc2ccccc2s1)N1C(=O)C2CC=CCC2C1=O (stereo partly specified)
comparison-sign: =
solubility kinetic / µg/mL: 45.2

molecule: COc1cc(OC)c(C(=O)O/N=C(\N)c2cccc(C)c2)cc1OC
comparison-sign: >
solubility kinetic / µg/mL: 51.7

molecule: Clc1ccc(-c2cc(CN3CCOCC3)no2)cc1
comparison-sign: >
solubility kinetic / µg/mL: 41.8

molecule: COc1ccccc1-n1cc(-c2ccccc2)[nH]c1=S
comparison-sign: =
solubility kinetic / µg/mL: 3

molecule: O=C(CCc1ccccc1)Nc1cc2c(cc1C(=O)O)OCCCO2
comparison-sign: >
solubility kinetic / µg/mL: 51.2

molecule: COc1ccc(S(N)(=O)=O)cc1C(=O)OCC(=O)Nc1sccc1C#N
comparison-sign: =
solubility kinetic / µg/mL: 15.1

molecule: N#Cc1cc(Nc2c(N)nc[nH]c2=O)c([N+](=O)[O-])cc1C#N
comparison-sign: >
solubility kinetic / µg/mL: 44.6

molecule: CN(Cc1ccccc1)C(=O)CN1CCCC1=O
comparison-sign: >
solubility kinetic / µg/mL: 36.9

molecule: COc1ccccc1Nc1nc2cc(C)ccc2cc1C#N
comparison-sign: <
solubility kinetic / µg/mL: 0.2

molecule: O=C(CN1C(=O)c2ccccc2S1(=O)=O)c1ccc(O)c(O)c1
comparison-sign: >
solubility kinetic / µg/mL: 50

molecule: O=C(c1ccco1)N1CCC(c2nc3ccccc3[nH]2)CC1
comparison-sign: >
solubility kinetic / µg/mL: 44.3

molecule: O=C(OCc1ccc(Cl)c(Cl)c1)c1ccc[nH]1
comparison-sign: =
solubility kinetic / µg/mL: 1.9

molecule: O=C1CSC(c2cccc([N+](=O)[O-])c2)N1c1ccccc1F (stereo unspecified)
comparison-sign: =
solubility kinetic / µg/mL: 37.7

molecule: Cc1cc2c(NC3CCCCC3)ncnc2s1.Cl
comparison-sign: =
solubility kinetic / µg/mL: 15

molecule: Cc1ccsc1C(=O)OCC(=O)NCc1ccccc1
comparison-sign: =
solubility kinetic / µg/mL: 10.9

molecule: CC(C)OCC(O)CN1CCC(Cc2ccccc2)CC1.Cl (stereo unspecified)
comparison-sign: >
solubility kinetic / µg/mL: 49.2

molecule: COc1ccccc1C1CCN(Cc2ccc(C)cc2)CC1
comparison-sign: =
solubility kinetic / µg/mL: 29.8

molecule: Nc1ncc2c(n1)CCN(c1ccc([N+](=O)[O-])cc1)C2
comparison-sign: =
solubility kinetic / µg/mL: 5.9

molecule: O=C(COC(=O)c1ccccc1Br)NCC1CCCCC1
comparison-sign: =
solubility kinetic / µg/mL: 38.1

molecule: CC1CCN(C(=O)CNC(=O)c2ccc(Br)o2)CC1
comparison-sign: >
solubility kinetic / µg/mL: 49.4

molecule: N#Cc1ccccc1OCC(=O)C1CC1
comparison-sign: =
solubility kinetic / µg/mL: 28.4

molecule: O=C(COC(=O)c1cccs1)Nc1ccc(F)c(F)c1
comparison-sign: =
solubility kinetic / µg/mL: 24.9

molecule: Nc1ccccc1OCCOc1ccccc1N
comparison-sign: >
solubility kinetic / µg/mL: 36.6

molecule: O=C(CN1CCOCC1)Nc1ccc([N+](=O)[O-])cc1Br
comparison-sign: =
solubility kinetic / µg/mL: 7.3

molecule: O=C(O)CCCCCNS(=O)(=O)c1ccc2c(c1)OCCO2
comparison-sign: >
solubility kinetic / µg/mL: 49.4

molecule: N#CC1=C(N)Oc2cc(N)ccc2C1c1ccc(Cl)cc1 (stereo unspecified)
comparison-sign: =
solubility kinetic / µg/mL: 3.4

molecule: NC(=O)C1CCN(Cc2nc(-c3cccs3)no2)CC1
comparison-sign: >
solubility kinetic / µg/mL: 43.9

molecule: COc1ccc2oc(=O)c(C(=O)NC3CCCCCC3)cc2c1
comparison-sign: =
solubility kinetic / µg/mL: 2.6

molecule: O=C(Nc1ccccc1C(=O)N1CCCCC1)c1cccs1
comparison-sign: >
solubility kinetic / µg/mL: 47.2

molecule: COc1ccc(N/C=C/C(=O)c2ccc(OC)c(OC)c2)cc1
comparison-sign: <
solubility kinetic / µg/mL: 0.7

molecule: O=C(Nc1ccc(Cl)cn1)C1CC1
comparison-sign: >
solubility kinetic / µg/mL: 29.5

molecule: CCOC(=O)c1c(C)[nH]c(C(=O)NCCN2CCOCC2)c1C
comparison-sign: >
solubility kinetic / µg/mL: 48.5

molecule: CCn1cc(CCC(=O)O)c(C)n1
comparison-sign: >
solubility kinetic / µg/mL: 27.3

molecule: O=C(COc1ncnc2ccccc12)NC1CCCC1
comparison-sign: >
solubility kinetic / µg/mL: 40.7

molecule: N#Cc1c(N2CCOCC2)nsc1-c1ccc(C(F)(F)F)cc1
comparison-sign: <
solubility kinetic / µg/mL: 0.2

molecule: COC(=O)CCCNC(=O)c1ccc2[nH]c(C)c(C)c2c1
comparison-sign: >
solubility kinetic / µg/mL: 43.3

molecule: Brc1ccc(OCc2cn3ccccc3n2)cc1
comparison-sign: =
solubility kinetic / µg/mL: 5.3

molecule: CCN1C(C#N)=C(C#N)N=C(C)CC1(C)C
comparison-sign: =
solubility kinetic / µg/mL: 29.8

molecule: CC1CCCN(Cc2nc(Cc3ccccc3Cl)no2)C1 (stereo unspecified)
comparison-sign: =
solubility kinetic / µg/mL: 27
